FYI, the data here is from patent US20220411419A1.

# Test system: downmodulation of MHC-I molecules expressed on the surface of HIV infected SupT1 cells
# test.method.notes: cells
# condition.details: Human immunodeficiency virus 1, SUP-T1, read-out: EC50 for inhibition of MHC-I downmodulation utilizing the R1 parameter
pEC50: −log10 of the molar value.
# label = bin(measured pEC50), where bins are category 1: < 6; category 2: ≥ 6 and < 7; category 3: ≥ 7

| compound | test.system | label |
| --- | --- | --- |
| Cc1csc(N(Cc2ccccn2)C(=O)COc2cccc3c2OC(C)(C)C3)n1 | downmodulation of MHC-I molecules expressed on the surface of HIV infected SupT1 cells | category 2 |
| Cc1ccc(CN(C(=O)COc2cccc3c2OC(C)(C)C3)c2ccc(C)cn2)nc1 | downmodulation of MHC-I molecules expressed on the surface of HIV infected SupT1 cells | category 1 |
| Cc1csc(NC(=O)COc2ccccc2OC(C)C)n1 | downmodulation of MHC-I molecules expressed on the surface of HIV infected SupT1 cells | category 1 |
| CC(C)(C)OC(=O)N1CCC(CNC(=O)c2cnc(NC(=O)COc3cccc4c3OC(C)(C)C4)s2)C1 (stereo not drawn) | downmodulation of MHC-I molecules expressed on the surface of HIV infected SupT1 cells | category 1 |
| C=C(C)c1ccc(NC(=O)COc2cccc3c2OC(C)(C)C3)nc1 | downmodulation of MHC-I molecules expressed on the surface of HIV infected SupT1 cells | category 1 |
| CC1(C)Cc2cccc(OCC(=O)Nc3nc4c(-c5ccc[nH]5)cccc4s3)c2O1 | downmodulation of MHC-I molecules expressed on the surface of HIV infected SupT1 cells | category 1 |
| CC1(C)Cc2cccc(OCC(=O)N(Cc3ccccc3)c3nc4c(F)cccc4s3)c2O1 | downmodulation of MHC-I molecules expressed on the surface of HIV infected SupT1 cells | category 3 |
| CC1(C)Cc2cccc(CCC(=O)Nc3nc4c(F)cccc4s3)c2O1 | downmodulation of MHC-I molecules expressed on the surface of HIV infected SupT1 cells | category 2 |
| CCCN(C(=O)COc1cccc2c1OC(C)(C)C2)c1nc2c(s1)CCCC2 | downmodulation of MHC-I molecules expressed on the surface of HIV infected SupT1 cells | category 3 |
| C=Cc1ccc(NC(=O)COc2cccc3c2OC(C)(C)C3)nc1 | downmodulation of MHC-I molecules expressed on the surface of HIV infected SupT1 cells | category 1 |
| Cc1ccc(N(C(=O)COc2cccc3c2OC(C)(C)C3)c2nc(C)cs2)cc1 | downmodulation of MHC-I molecules expressed on the surface of HIV infected SupT1 cells | category 2 |
| CN(C(=O)COc1cccc2c1OC(C)(C)C2)c1nc2ccccc2s1 | downmodulation of MHC-I molecules expressed on the surface of HIV infected SupT1 cells | category 1 |
| CC1(C)Cc2cccc(OCC(=O)N(Cc3ccccn3)c3nc4c(F)cccc4s3)c2O1 | downmodulation of MHC-I molecules expressed on the surface of HIV infected SupT1 cells | category 2 |
| CC1(C)Cc2cccc(OCC(=O)N(Cc3ccncc3)c3nc4c(s3)CCCC4)c2O1 | downmodulation of MHC-I molecules expressed on the surface of HIV infected SupT1 cells | category 3 |
| CCc1ccc(N(C)C(=O)COc2cccc3c2OC(C)(C)C3)nn1 | downmodulation of MHC-I molecules expressed on the surface of HIV infected SupT1 cells | category 1 |
| CC1(C)Cc2cccc(OCC(=O)Nc3nc4c(-c5ccncc5)cccc4s3)c2O1 | downmodulation of MHC-I molecules expressed on the surface of HIV infected SupT1 cells | category 1 |

----------
# System: downmodulation of MHC-I molecules expressed on the surface of HIV infected SupT1 cells
# test.method.notes: cells
# condition.details: Human immunodeficiency virus 1, SUP-T1, read-out: EC50 for inhibition of MHC-I downmodulation utilizing the R1 parameter
# EC50 per record follows
measurement.kind: EC50

| compound | measurement.kind | result |
| --- | --- | --- |
| Cc1cccc(OCC(=O)N(C)c2nc3c(s2)CCCC3)c1C [Compound 114] | EC50 | 1200 nM |
| CN(C(=O)COc1cccc2c1OCCO2)c1nc2c(s1)CCCC2 [Compound 126] | EC50 | 800 nM |
| COc1ccc(N(C(=O)COc2cccc3c2OC(C)(C)C3)c2nc(C)cs2)cc1 [Compound 62] | EC50 | 480 nM |
| COc1cccc(F)c1OCC(=O)N(C)c1nc2c(s1)CCCC2 [Compound 124] | EC50 | 260 nM |
| Cc1cccnc1CN(C(=O)COc1cccc2c1OC(C)(C)C2)c1nc2c(s1)CCCC2 [Compound 42] | EC50 | 7300 nM |

----------
# System: downmodulation of MHC-I molecules expressed on the surface of HIV infected SupT1 cells
# test.method.notes: cells
# condition.details: Human immunodeficiency virus 1, SUP-T1, read-out: EC50 for inhibition of MHC-I downmodulation utilizing the R1 parameter
pEC50: −log10 of the molar value.
Collected pEC50 values appear next to each entry.

| compound | pEC50 |
| --- | --- |
| CC1(C)Cc2cccc(OCC(=O)Nc3nc(C(C)(C)C)cs3)c2O1 [Compound 23] | 5.36 |
| Cc1cccc(OCC(=O)N(C)c2nc3c(s2)CCCC3)c1F [Compound 113] | 6.26 |
| CN(C(=O)COc1ccccc1OC(F)(F)F)c1nc2c(s1)CCCC2 [Compound 161] | 6.82 |
| CC1(C)Cc2cccc(OCC(=O)Nc3nc4c(s3)CCCCC4)c2O1 [Compound 3] | 6.70 |
| CC1(C)Cc2cccc(OCC(=O)Nc3nc4c(s3)COCC4)c2O1 [Compound 175] | 5.92 |
| CC1(C)Cc2cccc(OCC(=O)Nc3nc4c(Cl)cccc4s3)c2O1 [Compound 145] | 7.04 |
| Cc1csc(N(Cc2ncccn2)C(=O)COc2cccc3c2OC(C)(C)C3)n1 [Compound 43] | 6.15 |
| CC1(C)Cc2cccc(OCC(=O)Nc3ccc(C#N)cn3)c2O1 [Compound 22] | 4.60 |
| COc1c(OCC(=O)N(C)c2nc3c(s2)CCCC3)cccc1C1CC1 [Compound 120] | 5.32 |

----------
# test.method.notes: in vitro
# condition.details: human, uninfected SupT1 cells
measurement.kind: CC50 at 48 h

| compound | result |
| --- | --- |
| COc1cc(C)ccc1OCC(=O)N(C)c1nc2c(s1)CCCC2 [Compound 115] | > 125 µM |
| COC(=O)CN(C(=O)COc1cccc2c1OC(C)(C)C2)c1nc2c(s1)CCCC2 [Compound 99] | > 125 µM |
| CC1(C)Cc2cccc(OCC(=O)N(Cc3ccccc3)c3nc4c(F)cccc4s3)c2O1 [Compound 32] | > 100 µM |
| COc1ccc(C)cc1OCC(=O)N(C)c1nc2c(s1)CCCC2 [Compound 122] | > 125 µM |
| CC1(C)Cc2cccc(OCC(=O)Nc3nccc(C(F)(F)F)n3)c2O1 [Compound 28] | > 100 µM |
| Cc1csc(N(CCc2ccccc2)C(=O)COc2cccc3c2OC(C)(C)C3)n1 [Compound 50] | > 125 µM |
| CN(C(=O)COc1cccc2c1OC(C)(C)C2)c1nc2ccccc2s1 [Compound 144] | > 90 µM |
| CC1(C)Cc2cccc(OCC(=O)Nc3ccc(Br)cn3)c2O1 [Compound 66] | > 125 µM |
| CCc1ccc(NC(=O)COc2cccc3c2OC(C)(C)C3)nc1C [Compound 75] | 120 µM |
| CC1(C)Cc2cccc(OCC(=O)Nc3nc4c(Br)cccc4s3)c2O1 [Compound 1] | > 90 µM |
| Cc1ccc(N(C(=O)COc2cccc3c2OC(C)(C)C3)c2nc(C)cs2)nn1 [Compound 93] | > 100 µM |
| Cc1cccc(NC(=O)COc2cccc3c2OC(C)(C)C3)n1 [Compound 8] | > 100 µM |
| CC1(C)Cc2cccc(OCC(=O)Nc3ccccn3)c2O1 [Compound 7] | > 100 µM |
| CCCN(C(=O)COc1cccc2c1OC(C)(C)C2)c1nc2c(s1)CCCC2 [Compound 57] | > 125 µM |
| CC(C)c1ccc(NC(=O)COc2cccc3c2OC(C)(C)C3)nn1 [Compound 87] | > 100 µM |
| Cc1cccc(OCC(=O)N(C)c2nc3c(s2)CCCC3)c1F [Compound 113] | > 125 µM |
| Cc1csc(N(C(=O)COc2cccc3c2OC(C)(C)C3)c2ccc(Cl)cc2)n1 [Compound 59] | > 100 µM |
| Cc1ccnc(C)c1OCC(=O)N(C)c1nc2c(s1)CCCC2 [Compound 136] | 124 µM |
| COc1ccccc1OCC(=O)Nc1nc2cc(F)ccc2s1 [Compound 196] | > 100 µM |
| Cc1nc(NC(=O)C(C)(C)Oc2cccc3c2OC(C)(C)C3)sc1C [Compound 19] | > 90 µM |
| CC1(C)Cc2cccc(OCC(=O)Nc3cccc4cnccc34)c2O1 [Compound 14] | > 100 µM |
| Cc1csc(NC(=O)COc2cccc3c2OC(C)(C)C3)n1 [Compound 181] | > 90 µM |
| Cc1nc(NC(=O)COc2cccc3c2OC(C)(C)C3)sc1C [Compound 185] | > 90 µM |
| CC(C)(C)OC(=O)N1CCC(CNC(=O)c2csc(NC(=O)COc3cccc4c3OC(C)(C)C4)n2)C1 (stereo not shown) [Compound 155] | > 90 µM |
| C=CCN(C(=O)COc1cccc2c1OC(C)(C)C2)c1nc2c(s1)CCCC2 [Compound 56] | > 125 µM |
| COc1ccccc1OCC(=O)Nc1nc2c(Br)cccc2s1 [Compound 193] | > 90 µM |
| CCOc1ccccc1OCC(=O)N(C)c1nc2c(s1)CCCC2 [Compound 112] | > 125 µM |
| Cc1cccc2sc(NC(=O)COc3cccc4c3OC(C)(C)C4)nc12 [Compound 184] | > 90 µM |
| Cc1nccc(NC(=O)COc2cccc3c2OC(C)(C)C3)n1 [Compound 29] | > 100 µM |
| CC1(C)Cc2cccc(OCC(=O)Nc3cccc4nccnc34)c2O1 [Compound 13] | > 100 µM |
| CC1(C)Cc2cccc(OCC(=O)Nc3ccc(Br)nn3)c2O1 [Compound 25] | > 100 µM |
| Cc1cccc(OCC(=O)N(C)c2nc3c(s2)CCCC3)c1Br [Compound 117] | > 125 µM |
| Cc1ccncc1OCC(=O)N(C)c1nc2c(s1)CCCC2 [Compound 138] | > 125 µM |
| CC1(C)Cc2cccc(OCC(=O)Nc3cccc4cccnc34)c2O1 [Compound 178] | > 25 µM |
| CCc1cccc(NC(=O)COc2cccc3c2OC(C)(C)C3)n1 [Compound 158] | > 125 µM |
| Cc1ccc(N(Cc2ccccc2)C(=O)COc2cccc3c2OC(C)(C)C3)nn1 [Compound 36] | > 100 µM |
| CC1(C)Cc2cccc(OCC(=O)Nc3nc(C(F)(F)F)cs3)c2O1 [Compound 21] | > 100 µM |
